Measured values drawn from the supplement of paper PMC10567573 for this set.

B1: MNAT1 (parent)
chain: LEEALYEYQPLQIETYGPHVPELE

Variants of: B1
assay-explanation: protein stability index of a GFP-peptide fusion (GPS, HEK-293T) (PSI 1-6); higher = more stable;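 also: lentivirally expressed fusions sorted by FACS into six bins by GFP to DsRed ratio, PSI derived from sequencing read proportions per bin multiplied by bin number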
condition-label: c terminus: a fixed tail appended
experimental-readout: protein stability index
Give the value as a plain number.

* LEEALYEYQPLQIETYGNHVPELE | 3.31
* LEEALYRYQPLQIETYGPHVPELE | 1.73
* LEEAHYEYQPLQIETYGPHVPELE | 4.96
* LEEALYEYQPLQIETYGPHVPTLE | 2.56
* LEEELYEYQPLQIETYGPHVPELE | 4.56
* LEVALYEYQPLQIETYGPHVPELE | 1.74
* LEEALYEYQPLQIETYGPHVPELH | 2.25
* LEEALYERQPLQIETYGPHVPELE | 5.44
* LEEALYEYQPLQIETYGPHNPELE | 3.23
* DEEALYEYQPLQIETYGPHVPELE | 4.8

Please fill in: protein stability index reported for NEEALYEYQPLQIETYGPHVPELE = 4.72

Please fill in: protein stability index reported for LEEALTEYQPLQIETYGPHVPELE = 3.56

Please fill in: protein stability index reported for LEEALYEYQPDQIETYGPHVPELE = 4.85

Please fill in: protein stability index reported for LEEPLYEYQPLQIETYGPHVPELE = 4.28

Please fill in: protein stability index reported for LEEALFEYQPLQIETYGPHVPELE = 2.8

Please fill in: protein stability index reported for LEEALYEYQPLQIETYGPHVPELS = 2.54

Please fill in: protein stability index reported for LEEALYEYQPLQIETYCPHVPELE = 1.98

Please fill in: protein stability index reported for LEEALYEYQPLQIETYGPHTPELE = 2.38

Please fill in: protein stability index reported for LEEALYEYQPLNIETYGPHVPELE = 2.65

Please fill in: protein stability index reported for LEEALYEYQPLQIETYGPHVIELE = 2.2

Please fill in: protein stability index reported for LEEALYEYQTLQIETYGPHVPELE = 4.1

Please fill in: protein stability index reported for LEEALYEIQPLQIETYGPHVPELE = 4.92
